Data origin, for the record: paper PMC3322284

- SYSTEM: hamster Abcb1a Pgp (Cricetulus griseus)
- Sequence (P21448 whole entry): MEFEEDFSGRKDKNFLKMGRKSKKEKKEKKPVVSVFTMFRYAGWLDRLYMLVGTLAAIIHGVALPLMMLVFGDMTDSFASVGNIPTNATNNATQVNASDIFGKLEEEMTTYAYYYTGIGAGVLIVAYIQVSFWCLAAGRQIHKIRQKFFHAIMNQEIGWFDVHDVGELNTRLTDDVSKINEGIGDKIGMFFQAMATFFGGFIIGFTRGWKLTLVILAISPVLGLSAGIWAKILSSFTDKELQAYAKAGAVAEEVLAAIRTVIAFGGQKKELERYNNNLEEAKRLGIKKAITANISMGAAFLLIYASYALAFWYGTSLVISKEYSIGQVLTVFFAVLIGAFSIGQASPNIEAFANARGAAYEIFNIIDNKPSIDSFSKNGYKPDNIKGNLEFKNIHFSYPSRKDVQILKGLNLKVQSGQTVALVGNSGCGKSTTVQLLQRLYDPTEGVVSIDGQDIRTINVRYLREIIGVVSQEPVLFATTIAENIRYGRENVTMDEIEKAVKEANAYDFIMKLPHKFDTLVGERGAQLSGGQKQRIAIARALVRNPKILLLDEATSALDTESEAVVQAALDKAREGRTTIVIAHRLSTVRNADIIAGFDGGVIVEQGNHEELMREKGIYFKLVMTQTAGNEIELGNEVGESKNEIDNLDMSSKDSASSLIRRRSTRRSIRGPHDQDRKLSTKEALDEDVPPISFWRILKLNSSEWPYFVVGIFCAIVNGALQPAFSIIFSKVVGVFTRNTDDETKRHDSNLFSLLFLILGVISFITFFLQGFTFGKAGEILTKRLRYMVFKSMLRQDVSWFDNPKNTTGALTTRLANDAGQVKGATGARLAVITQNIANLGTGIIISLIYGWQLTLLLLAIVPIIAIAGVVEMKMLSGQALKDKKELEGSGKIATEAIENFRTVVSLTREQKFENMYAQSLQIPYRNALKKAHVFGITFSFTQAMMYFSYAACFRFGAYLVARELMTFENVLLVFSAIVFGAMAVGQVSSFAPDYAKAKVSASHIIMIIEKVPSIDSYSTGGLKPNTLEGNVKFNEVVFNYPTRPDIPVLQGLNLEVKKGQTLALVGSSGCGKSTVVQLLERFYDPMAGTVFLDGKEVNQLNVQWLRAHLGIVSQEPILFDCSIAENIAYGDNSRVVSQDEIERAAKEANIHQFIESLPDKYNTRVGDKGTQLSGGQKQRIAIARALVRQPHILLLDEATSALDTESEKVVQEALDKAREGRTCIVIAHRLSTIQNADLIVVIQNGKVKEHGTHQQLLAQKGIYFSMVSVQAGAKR
- TEST_DESCRIPTION: Fluorosome-trans-pgp
Provide the reported pIC50 of each item.
pIC50 field: float, defined as -log10 of concentration (mol/L).

`COc1cc2c(cc1OC)CN(CCc1ccc(NC(=O)c3cc(OC)c(OC)cc3NC(=O)c3cnc4ccccc4c3)cc1)CC2` has a reported pIC50 of 7.68

`C[C@]12CC[C@H](O)C[C@H]1CC[C@@H]1[C@@H]2C[C@@H](O)[C@]2(C)[C@@H](C3=CC(=O)OC3)CC[C@]12O` has a reported pIC50 of 3.28

`CCc1oc2ccccc2c1C(=O)c1cc(Br)c(O)c(Br)c1` has a reported pIC50 of 4.36

`C=CCN1CC[C@]23c4c5ccc(O)c4O[C@H]2C(=O)CC[C@@]3(O)[C@H]1C5` has a reported pIC50 of 3.68
